Listing of pIC50 toward Lysine-specific demethylase 4C (Homo sapiens, UniProt Q9H3R0), each taken from a published source.
Answer as the number alone; pIC50 is minus log10 of concentration in mol/L.

Incoming: Item CC(C)CCCCCCCCC(=O)N(O)CCC(=O)O with Lysine-specific demethylase 4C (Homo sapiens, UniProt Q9H3R0) - pIC50?
Outgoing: 4.26

Incoming: Which measured pIC50 belongs to O=C(O)/C=C/C(=O)N(O)CCCCNCc1ccc(COC(=O)Nc2cccc3ccccc23)cc1 , tested on Lysine-specific demethylase 4C (Homo sapiens, UniProt Q9H3R0)?
Outgoing: 5.47

Incoming: What is its pIC50 for Lysine-specific demethylase 4C (Homo sapiens, UniProt Q9H3R0)? Entry: CC(Oc1ccnn1-c1cc(C(=O)O)ccn1)c1ccc(F)cc1 (stereo not drawn)
Outgoing: 6.51

Incoming: Request - read-out pIC50 | tested on Lysine-specific demethylase 4C (Homo sapiens, UniProt Q9H3R0) | molecule O=C(O)c1ccnc(-n2nccc2OCc2ccc(Cl)cc2OCC2CC2)c1
Outgoing: 6.55

Incoming: So what pIC50 did CCc1ccc(COc2ccnn2-c2cc(C(=O)O)ccn2)cc1 get with Lysine-specific demethylase 4C (Homo sapiens, UniProt Q9H3R0)?
Outgoing: 5.44

Incoming: Recall the recorded pIC50 for Cc1c(O)c(C=O)nn1-c1ccccc1 with Lysine-specific demethylase 4C (Homo sapiens, UniProt Q9H3R0) and state it.
Outgoing: 4.00

* * *

# IC50 against Lysine-specific demethylase 4C (Homo sapiens), merged from multiple literature sources

Incoming: # get_value(readout= IC50, system= Lysine-specific demethylase 4C (Homo sapiens)) for CCCCN(CCCC)CCCCC(=O)N(O)CCC(=O)O
Outgoing: > 100000 nM

Incoming: Any idea what IC50 came out for COc1cc(-c2ccnn2-c2cc(C(=O)O)ccn2)ccc1Cl on Lysine-specific demethylase 4C (Homo sapiens)?
Outgoing: 2900 nM

Incoming: Can you look up IC50 on Lysine-specific demethylase 4C (Homo sapiens) for O=C(O)c1ccnc(-n2nccc2-c2ccc(F)c(F)c2)c1 ?
Outgoing: 560 nM

Incoming: Request body: readout IC50, system Lysine-specific demethylase 4C (Homo sapiens), query COC(=O)c1n[nH]n(Cc2ccccc2)c1=O . Return the value.
Outgoing: > 200000 nM

Incoming: Reported IC50 for Lysine-specific demethylase 4C (Homo sapiens), given N[C@@H]1C[C@H]1c1ccc(NC(=O)c2ccnc(-c3cc(C(=O)O)ccn3)c2)cc1 (relative stereo) ?
Outgoing: 70 nM

Incoming: Record O=C(O)c1ccnc(-n2nccc2-c2cccc(F)c2)c1 : what is its IC50 with Lysine-specific demethylase 4C (Homo sapiens)?
Outgoing: 660 nM

Incoming: Report IC50 for Cl.N[C@H]1C[C@@H]1c1ccc(NC(=O)CCCCCNC(=O)c2ccc(O)c3ncccc23)cc1 (relative stereo) tested on Lysine-specific demethylase 4C (Homo sapiens).
Outgoing: 2500 nM

Incoming: Request - read-out IC50 | tested on Lysine-specific demethylase 4C (Homo sapiens) | compound O=C(O)c1ccnc(-n2nccc2OCc2ccc(F)cc2)c1
Outgoing: 24 nM

Incoming: Record lookup: for Lysine-specific demethylase 4C (Homo sapiens), what IC50 belongs to Cc1c(C(=O)O)cnn1C ?
Outgoing: > 200000 nM

Incoming: Observed IC50 on Lysine-specific demethylase 4C (Homo sapiens) for O=C(O)c1ccnc(NCc2cccc(F)c2)c1 , please.
Outgoing: 100 nM

Incoming: Query the reported IC50 for Lysine-specific demethylase 4C (Homo sapiens); item: CSc1c(Cl)[n+]([O-])nn1-c1ccccc1
Outgoing: > 200000 nM

Incoming: Give the reported IC50 for CNC(=O)c1nnn(C)c1O (system: Lysine-specific demethylase 4C (Homo sapiens)).
Outgoing: > 200000 nM

Incoming: Form field: IC50 recorded for COC(=O)c1ccnc(-c2cc(C(=O)O)ccn2)c1 with Lysine-specific demethylase 4C (Homo sapiens) (enter value)
Outgoing: 3500 nM

Incoming: Which IC50 is reported with Lysine-specific demethylase 4C (Homo sapiens) for this entry: N#Cc1c(O)c2ccncc2[nH]c1=O ?
Outgoing: > 25000 nM

Incoming: Form entry - test system: Lysine-specific demethylase 4C (Homo sapiens); read-out: IC50; compound: CCOC(=O)c1nnn(-c2ccccc2)c1NC(C)=O
Outgoing: > 200000 nM

Incoming: Field: IC50 (Lysine-specific demethylase 4C (Homo sapiens)). Entry: COc1sc(-c2ccccc2)nc1Cl
Outgoing: > 200000 nM

Incoming: Which IC50 is reported with Lysine-specific demethylase 4C (Homo sapiens) for this entry: COC(=O)CCN(O)C(=O)CCCCCCCCC(C)C ?
Outgoing: 110000 nM

Incoming: Request: IC50, test system Lysine-specific demethylase 4C (Homo sapiens), entry O=C(O)CNC(=O)C(=O)O
Outgoing: 430000 nM

Incoming: # value lookup — system Lysine-specific demethylase 4C (Homo sapiens), readout IC50, item C[C@H](c1ccccc1)N1CC[C@@H](CNCc2cc(C(=O)O)ccn2)C1=O
Outgoing: < 250 nM

Incoming: Missing value: IC50, Lysine-specific demethylase 4C (Homo sapiens), entry Brc1cn(Cc2ccccc2)nn1 . Fill in?
Outgoing: > 200000 nM

Incoming: Look up IC50 with Lysine-specific demethylase 4C (Homo sapiens) for this compound: Cc1cnc2c(c1)c(Nc1cnccc1C(=O)O)cn2CCN1CCC(F)(F)CC1
Outgoing: 3200 nM

Incoming: State its IC50 on Lysine-specific demethylase 4C (Homo sapiens): CCOc1cc(Cl)ccc1COc1ccnn1-c1cc(C(=O)O)ccn1
Outgoing: 78 nM

Incoming: Write down the reported IC50 of O=C(O)c1ccnc(-n2nccc2-c2ccc(F)cc2)c1 , test system: Lysine-specific demethylase 4C (Homo sapiens).
Outgoing: 490 nM

Incoming: Look up IC50 with Lysine-specific demethylase 4C (Homo sapiens) for this compound: [O-][n+]1nn(Cc2ccccc2)cc1Br
Outgoing: > 200000 nM

Incoming: IC50 of COc1cc(Cl)ccc1COc1ccnn1-c1cc(C(=O)O)ccn1 on Lysine-specific demethylase 4C (Homo sapiens)?
Outgoing: 38 nM

* * *

Biological target: Lysine-specific demethylase 4C (Homo sapiens)
Sequence (Q9H3R0 whole entry): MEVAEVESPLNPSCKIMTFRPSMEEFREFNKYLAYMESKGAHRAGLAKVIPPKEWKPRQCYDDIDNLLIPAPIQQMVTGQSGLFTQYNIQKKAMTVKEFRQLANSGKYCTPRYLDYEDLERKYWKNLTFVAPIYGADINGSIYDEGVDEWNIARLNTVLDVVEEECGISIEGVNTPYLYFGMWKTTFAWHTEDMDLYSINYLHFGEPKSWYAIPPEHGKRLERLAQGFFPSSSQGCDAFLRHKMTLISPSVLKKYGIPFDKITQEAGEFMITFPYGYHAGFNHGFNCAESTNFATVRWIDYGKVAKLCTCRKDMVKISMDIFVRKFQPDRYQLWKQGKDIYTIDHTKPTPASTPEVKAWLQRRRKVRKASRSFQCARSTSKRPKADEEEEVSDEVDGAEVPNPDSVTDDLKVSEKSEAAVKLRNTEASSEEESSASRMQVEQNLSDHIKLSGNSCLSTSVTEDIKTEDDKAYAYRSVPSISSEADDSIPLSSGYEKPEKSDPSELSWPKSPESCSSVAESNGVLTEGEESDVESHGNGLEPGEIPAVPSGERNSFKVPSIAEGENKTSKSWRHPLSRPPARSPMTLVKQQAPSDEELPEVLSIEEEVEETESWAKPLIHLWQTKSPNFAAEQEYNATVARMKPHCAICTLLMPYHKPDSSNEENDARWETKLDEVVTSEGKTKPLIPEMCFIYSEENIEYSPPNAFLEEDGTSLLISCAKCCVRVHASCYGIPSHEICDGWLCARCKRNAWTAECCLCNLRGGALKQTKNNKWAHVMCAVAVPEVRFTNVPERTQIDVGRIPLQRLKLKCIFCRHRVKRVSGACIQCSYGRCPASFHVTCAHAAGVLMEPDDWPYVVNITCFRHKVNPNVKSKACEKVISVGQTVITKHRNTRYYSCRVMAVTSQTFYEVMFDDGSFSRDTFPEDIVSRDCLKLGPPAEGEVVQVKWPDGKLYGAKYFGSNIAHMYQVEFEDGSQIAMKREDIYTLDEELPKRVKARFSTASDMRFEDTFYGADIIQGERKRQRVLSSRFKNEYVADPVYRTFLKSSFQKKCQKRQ
Literature log10 IC50 values, system: Lysine-specific demethylase 4C (Homo sapiens).
log10 IC50, µM

Incoming: So what does the record say about log10 IC50 for Cc1cc(Cl)ccc1COc1ccnn1-c1cc(C(=O)O)ccn1 ?
Outgoing: 1.23

Incoming: Name the reported log10 IC50 value associated with the compound O=C(O)c1ccnc(-n2nccc2-c2cccc(O)c2)c1
Outgoing: -0.39

Incoming: Consider the compound COC(=O)c1ccnc(-c2cc(C(=O)Nc3ccc([C@@H]4C[C@H]4N)cc3)ccn2)c1.Cl (relative stereo) and give its measured log10 IC50.
Outgoing: 0.43

Incoming: Fill in the blank: the reported log10 IC50 of Cc1cnn(-c2cc(C(=O)O)ccn2)c1OCc1ccc(F)cc1 is ____.
Outgoing: 0.46

Incoming: Any idea what log10 IC50 was measured for CCCCCN(C)CCCCC(=O)N(O)CCC(=O)O ?
Outgoing: 1.57

Incoming: I'd like to know its log10 IC50. The compound in question is O=C(O)CCN(O)C(=O)CCCCCCCCC1CC1
Outgoing: 1.92

Incoming: Look up log10 IC50: CCCCN(C)CCCCCC(=O)N(O)CCC(=O)O
Outgoing: 1.79

Incoming: Fill in: log10 IC50 of CCCCN(CC)CCCCC(=O)N(O)CCC(=O)O is ___
Outgoing: 1.81

Incoming: Request the reported log10 IC50 associated with O=C(O)CCN(O)C(=O)CCCCCCCCC1CCCC1
Outgoing: 1.89

Incoming: Entry CCCCN(C)CCCC(=O)N(O)CCC(=O)O has what log10 IC50?
Outgoing: 1.80

Incoming: Value lookup for log10 IC50; key = N[C@H]1C[C@@H]1c1ccc(NC(=O)CCCCNC(=O)c2ccc(O)c3ncccc23)cc1 (relative stereo)
Outgoing: 0.49

Incoming: Given N[C@H]1C[C@@H]1c1ccc(NC(=O)CCCNC(=O)c2ccc(O)c3ncccc23)cc1 (relative stereo) , state its recorded log10 IC50.
Outgoing: 0.65

Incoming: log10 IC50 lookup needed for Cc1ccc(-c2ccnn2-c2cc(C(=O)O)ccn2)cc1 , thanks.
Outgoing: 0.04

Incoming: log10 IC50 for CCc1cnn(-c2cc(C(=O)O)ccn2)c1OCc1ccc(F)cc1 ?
Outgoing: -0.59
